tested on: human non-small cell lung cancer cell line NCI-H2228 cells (EML4-ALK fusion protein-expressing cells); test: Inhibitory effect against anchorage-independent cell growth of NCI-H2228 cells (Test Example 3); assay type: cell-based; settings: 120 h, spheroid plate, 5 days, CellTiter-Glo
Consider the cut-off 100 nM. If the recorded IC50 is strictly smaller, the label is rule met; if not, the label is rule not met.

Example entries and their recorded answers appear below.
COc1cc(N2CC(N3CCN(C)CC3)C2)ccc1Nc1ncnc(Nc2ccccc2S(=O)(=O)C(C)C)n1 [Example 176]; rule not met
CCNS(=O)(=O)c1ccccc1Nc1ncnc(Nc2ccc(N3CCC(N4CCN(C)CC4)CC3)cc2OC)n1 [Example 123]; rule met
COc1cc(N2CCC3(CCCN3C)CC2)ccc1Nc1ncnc(Nc2ccccc2S(=O)(=O)C(C)C)n1 [Example 120]; rule not met
COc1cc(N2CCC(N3CCN(C)CC3)CC2)ccc1Nc1ncnc(Nc2ccccc2S(=O)(=O)N(C)C)n1 [Example 128]; rule met

Task: I wonder whether COc1cc(N2CCC(N3CCN(C)CC3)CC2)ccc1Nc1nc(Nc2ccccc2S(=O)(=O)C(C)C)c2ccccc2n1 [Example 1] has IC50 below 100 nM. Can you tell?
Result: rule not met
